- ASSAYED SYSTEM: T1, TA0096 (peptide antigen corresponding to positions 340 to 356 of PAD4)
- T1 peptide: EENMDDQWMQDEMEIGY
- TEST SUMMARY: ELISA, coated peptide
OBSERVATION TYPE: OD 490/630 nm

Examples with answers:
[[record]]
binder = "A11 (antibody, V domains shown, Chicken variable regions in a mouse chimeric antibody (IgG1); also called anti-PAD4 antibody A11) VH: AVTLDESGGGLQTPGGALSLVCKASGFDFSSYGMGWMRQAPGKGLEYVAAIRNDGSWTGYGAAVKGHATISRDNGQSTVRLQLNNLRAEDTGTYYCAKTTGSRGGSIDAWGHGTEVIVS VL: ASTQPSSVSANLGGTVEITCSGGGRYYYGWYQQKSPGSAPVTVIYANDKRPSDIPSRFSGSKSGSTGTLTITGVQAEDEAVYFCGSAETSSYVFGAGTTLTVL"
result = 1.81

[[record]]
binder = "H7 (antibody, V domains shown, Chicken variable regions in a mouse chimeric antibody (IgG1); also called anti-PAD4 antibody H7) VH: AVTLDESGGGLQTPGGALSLVCKASGFTFSTYAMGWMRQAPGKGLEYVAAIRNDGSWTGYGAAVKGRATILRDNGQSTVRLQLSNLRAEDTGTYYCAKYTGSSGGSIGAWGHGTEVIVS VL: ASTQPSSVSANPGGTVEITCSGGSGRYYYGWYQQKSPGSAPVTVIYSSTHRPSNIPSRFSGSKSGSTATLTITGVQAEDEAVYFCGTADSSSYVFGAGTTLTVL"
result = 1.82


input: What value of OD 490/630 nm has been reported for the following binder? G6 (antibody, V domains shown, Chicken variable regions in a mouse chimeric antibody (IgG1); also called anti-PAD4 antibody G6) VH: AVTLDESGGGLQTPGGALSLVCKASGFTFSSYGMEWVRQAPGKGLEYVAAIRNDGSWTGYGAAVKGRATISRDDGQSTLRLQLNNLRAEDTATYYCAKTTGSSGGSIDAWGHGTEVIVS VL: ASTQPSSVSANLGETVKITCSGGGNYYYGWYQQKSPGSAPVTLIYANDKRPSNIPSRFSGSKSGSTGTLTITGVQAEDEAVYFCGTADTGKYVFGAGTTLTVL
output: 1.87
